Biological target: T1, AF9 YEATS domain (human, UniProt P42568 1-138)
T1 chain: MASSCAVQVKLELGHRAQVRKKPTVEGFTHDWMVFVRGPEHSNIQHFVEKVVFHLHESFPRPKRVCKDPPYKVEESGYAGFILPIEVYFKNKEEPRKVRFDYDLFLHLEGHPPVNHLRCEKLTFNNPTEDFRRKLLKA
Where no end group is shown, it is not given here. The star is where a group is joined. Oxazole(5-CO) = O=C(c1cnco1)*; Crotonyl(E) = C/C=C/C(=O)*; 2Furoyl = O=C(c1ccco1)*; Butyryl = CCCC(=O)*
Field: pIC50. Provide a value for each of the binders that follow.
Keep in mind that pIC50 stands for -log10 of concentration in molar terms.

# input Could you tell me which pIC50 is on file for YDVYCYK(Oxazole(5-CO)) [ENL-S1o] ?
# output 6.64

# input Could you tell me which pIC50 is on file for YDVYCYK(2Furoyl) [ENL-S1f] ?
# output 6.77

# input Could you tell me which pIC50 is on file for YDVYCYK(Crotonyl(E)) [ENL-S1c] ?
# output 6.46

# input Could you tell me which pIC50 is on file for YDVYCYK(Butyryl) [ENL-S1] ?
# output 6.60

These entries and their values trace back to paper PMC11046469.
